- TEST_SUMMARY: Intrinsic clearance in Balb/c mouse liver microsomes at 2 uM in presence of NADPH by HPLC-MS analysis
- Format: ADME, microsome
PROPERTY: CL int at 2 µM (µL/min/mg)
# output: bare number, implied unit µL/min/mg

Consider Cc1cccc(OCCC2CCOC3(CCN(Cc4ccc(COc5ccc(CCC(=O)O)cc5)cc4)CC3)C2)n1.Cl.Cl (stereo unspecified) . Its measured CL int at 2 µM is 72.8

###

- TEST_SUMMARY: Half life in Balb/c mouse liver microsomes at 2 uM in presence of NADPH by HPLC-MS analysis
- Assay type: ADME, microsome
PROPERTY: half-life at 2 µM (min)
# output: bare number, implied unit min

Consider Cc1cccc(OCCC2CCOC3(CCN(Cc4ccc(COc5ccc(CCC(=O)O)cc5)cc4)CC3)C2)n1.Cl.Cl (stereo unspecified) . Its measured half-life at 2 µM is 22.9
